Tested on: MS2 coat protein
ASSAY_PROTOCOL: apparent KD of MS2 coat protein; designed switch direction (-1 OFF switch, 1 ON switch): -1; higher = weaker reporter binding
DETAILS: input ligand: none
Use 60 nM as the dividing line for apparent KD of MS2 coat protein, with the line itself on the True side and lower values as False.

Example entries and their recorded answers appear below.
| BIOSEQUENCE | ASSIGNED_CLASS |
| --- | --- |
| AGUGUGUGGCAGGAUAUUCUGUUGAUUAGGACAGAAGAAGGGUCUACAUGAGGAUCACCCAUGUAAGCGGUUGA [Ex6 #36] (Eterna round: R97, puzzle: Exclusion 6) | True |
| UCUAUGAUGCGAGGAUAUCGACCAUUCCUCUUUACAUGAGGAUCACCCAUGUUCGUACGCUACAACGAGAAGGCGCACUAAGUU [JR_ExcNG2_Sub060] (Eterna round: R96, puzzle: Exclusion NG 2) | True |
| AGUAGAUCAGGAUAUACGUGAAAGGUCAAAGUGUCCAAUAUACAUGAGGAUCACCCAUGUAGAAGGGAUCUACA [Ex2 Design 116: Not so Super Stable 3] (Eterna round: R96, puzzle: Exclusion 2) | False |

Please look at the following sequence next.
# bool: apparent KD of MS2 coat protein of AAGGACCGUGUAGGAUAUGCACUGAAUAGGUCAGGAGGGUUCUUACACAUGAGGAUCACCCAUGUGUAGAAGGACGGAAGGUCA [Eternabot solution 25] (Eterna round: R96, puzzle: Exclusion NG 2) >= 60 nM
False

---

Tested on: MS2 coat protein
ASSAY_PROTOCOL: apparent KD of MS2 coat protein; designed switch direction (-1 OFF switch, 1 ON switch): -1; higher = weaker reporter binding
DETAILS: input ligand: none
RECORDED_ENDPOINT: apparent KD of MS2 coat protein (µM)
Answer format: numeric, µM implied, no suffix.

As a guide, the following entries are already answered.
| BIOSEQUENCE | TARGET_OR_SYSTEM | READOUT_NUMBER |
| --- | --- | --- |
| AGAUUGCAUGAGGAUAUCGUAUUAGAUAUAAUGCGAGAAGGCAUGACAUGAGGAUCACCCAUGUAGUGUUGGGA [JR_Ex6_Sub012] (Eterna round: R97, puzzle: Exclusion 6) | MS2 coat protein | 0.0526 |
| AACAUGAGGAUCACCCAUGUAAUGGACAGAUCACCGACCACGCAGGAUAUUAGGCCUCAAAUUCUUAAGAAGGGCGAGGAUGUG [Eternabot solution 49] (Eterna round: R96, puzzle: Exclusion NG 3) | MS2 coat protein | 0.0669 |
| CCAUAUUCGAAGGAUAUGCAAUUGGAUAGAUUCGCAGAAGGUCGAACAUGAGGAUCACCCAUGUCCCUGGUGAA [Eternabot (L2) Solution 89] (Eterna round: R97, puzzle: Exclusion 6) | MS2 coat protein | 0.133 |

Next sequence, apparent KD of MS2 coat protein to be filled in.
Param readout= apparent KD of MS2 coat protein; system= MS2 coat protein; entry= UGUCCACAUUCCGAUACGGGACAUGAGGAUCACCCAUGUCCACAGGAUAUCGUCUUACGAGAGAUCGAGAAGGGUGGCGUGCGC [Eternabot solution 22] (Eterna round: R96, puzzle: Exclusion NG 3) ; returns value.
0.0141

---

Tested on: MS2 coat protein
ASSAY_PROTOCOL: apparent KD of MS2 coat protein; higher = weaker reporter binding
DETAILS: Eterna round: R107; input ligand: arginine 13.2 mM
Use 20 nM as the dividing line for apparent KD of MS2 coat protein, with the line itself on the yes (1) side and lower values as no (0).

Example entries and their recorded answers appear below.
| BIOSEQUENCE | TARGET_OR_SYSTEM | ASSIGNED_CLASS |
| --- | --- | --- |
| GCCUAGCAGCGAAGGAGCGACAUCGGCGCAUGCGAGGACAUGAGGAUCACCCAUGUACCAUGUCAGGUAGGUCGCGCUGCUAGGC [EAB NP+V+V2 #6] | MS2 coat protein | no (0) |
| AAUAAUAUCCUCAUGUGAGUCGUACCGUAACGAGGACCGGUACGGCCGCCACUCGAACAUGAGGAUCACCCAUGUAGGUACGACA [M'-T'-T-MS2-T'' - Design 8] | MS2 coat protein | yes (1) |
| AGCGCAUCCGUAUAGGAUGCGCUCCAUGAAGGAGCGCGGGAAACCGCAGGUAGGUCGCGUGACAUGAGGAUCACCCAUGUGUAUU [#17 Same State - Arginine A] | MS2 coat protein | no (0) |

# bool: apparent KD of MS2 coat protein of UUGUUGUUUGGAAGGAGCGUGUAAGAUUAAGAACAUGAGGAUCACCCAUGUUUUAAGGGAGCACAGGUAGGUCGCCGGGUGGUGG [11.S] >= 20 nM
no (0)

# bool: apparent KD of MS2 coat protein of AAAACAUGAGGAUCACCACAUGACAUGAGGCGAGGACCGGUACGGCCGCCACUCGACAUACAUGAGGAUCACCCAUGUUUGUUGU [Exclusion Tryptophan A 4] >= 20 nM
yes (1)

# bool: apparent KD of MS2 coat protein of GUCCAAAGGUCGGCCGCCACUGUAGAGUGUGUUCUUUCACAUGAGGAUCACCCAUGUUGUUAUUAUAGGACCGGGAUUGUAGGAC [#21 Exclusion Tryptophan B] >= 20 nM
no (0)

# bool: apparent KD of MS2 coat protein of ACACACAUGAGGAUCACCCAUGUAAUAGAUACCAGUGACGCGGUGCACCCUUGGCAGCUGCUGCUGAGUGAUGGUUCCCUCGGAA [Exclusion Theophylline A GF7] >= 20 nM
no (0)

---

Tested on: MS2 coat protein
ASSAY_PROTOCOL: apparent KD of MS2 coat protein; designed switch direction (-1 OFF switch, 1 ON switch): 1; higher = weaker reporter binding
DETAILS: input ligand: none
apparent KD of MS2 coat protein reference
Answer format: numeric, µM implied, no suffix.

As a guide, the following entries are already answered.
| BIOSEQUENCE | READOUT_NUMBER |
| --- | --- |
| GAGAGACGAUUAGGAUAUACGGUGAUAAUGAUAGUAGAAGGAAUUGACAUGAGGAUCACCCAUGUAGGAAUAAUCCAGAGAGAG [Parity 26 - Jieux - Same State NG 1] (Eterna round: R96, puzzle: Same State NG 1) | 0.0868 |
| UUGUUUUGUAAUUAACAUGAGGAUCACCCAUGUCUUGGCUCAGAGGAUAUACAUGUUUGAUUGUAGUAGAAGGCUGAAUGUUGU [JR_SSNG3_Sub094] (Eterna round: R96, puzzle: Same State NG 3) | 0.131 |
| GGCCUCUGUCAAGGAUAUGCUACCGUUUCGGUAGCAGAAGGUGAUCACAUGAGGAUCACCCAUGUUUAGGCCCUCUGGCCCGCC (Eterna round: R96, puzzle: Same State NG 1) | 0.138 |
| AGAUCAUGACGAGGAUAUCCGACAUGAGGAUCACCCAUGUAUGUCGGAGGACGCGUACGUCCAAAGGAGAAGGCGUCGUGGUCA [JL SSNG2 1.02] (Eterna round: R96, puzzle: Same State NG 2) | 0.1 |

Next sequence, apparent KD of MS2 coat protein to be filled in.
Looking for the measured apparent KD of MS2 coat protein of GACCGCGAGGAAGGAUAUGGAGCCUUAUUGGCUCCAGAAGGUCCAUAAAGGACAUGAGGAUCACCCAUGUGGUGUGAAGCGGUC [Fiskers NG1ss - 18] (Eterna round: R96, puzzle: Same State NG 1) , can you help?
0.627

---

apparent KD of MS2 coat protein reference
System: MS2 coat protein
ASSAY_PROTOCOL: apparent KD of MS2 coat protein; designed switch direction (-1 OFF switch, 1 ON switch): -1; higher = weaker reporter binding
DETAILS: Eterna round: R95; input ligand: none
Answer format: numeric, µM implied, no suffix.

Looking for the measured apparent KD of MS2 coat protein of AAAAAACAAGGAUAUACUAAAAAAAAAUGUGUUAAUUUUUCACAUGAGGAUCACCCAUGUAGAAGGUGUUAAAA [JR_Exclusion2_Sub006] (puzzle: Exclusion 2) , can you help?
0.0936

Looking for the measured apparent KD of MS2 coat protein of AAUGAUGAUGUGAGGAUAUACAUAGUUAGACCGUAGUAGAAGGCACAUGAGGAUCACCCAUGUAGAUGUUAGGU [JR_BME4_Sub003] (puzzle: Brourd's mod of Exclusion 4) , can you help?
0.0144

Looking for the measured apparent KD of MS2 coat protein of AAACCUGCCCAUGACCGCAAGCUUUUCGCUUGUCUUACCACAUGAGGAUCACCCAUGUGACAUGGGCUCCUUAUAAA [Usorle] (puzzle: Sensor v3, turn-off variant 2) , can you help?
0.0114

Looking for the measured apparent KD of MS2 coat protein of UUUAAUUUUUUUUUUUUACAAGCUUUUUGCUCGUCUUAUACAUGAGGAUCACCCAUGUAAAUGAGGGAUAAAUUAUC [JMF 38] (puzzle: Sensor v3, turn-off variant 2) , can you help?
0.0157

Looking for the measured apparent KD of MS2 coat protein of UCUGGUCGGAAGGAUAUGGUCGGGUCAAAUCGUCCAGAAGGUCUGACAUGAGGAUCACCCAUGUGAGUCCAAAG [Ataesma] (puzzle: Exclusion 6) , can you help?
0.0218

All values here come from the supplement of paper PMC9170038.
